# Tested on: UACC-257 melanoma
# protocol: NCI tumour cell line growth inhibition, 48 h
// reported TGI for each item listed
quantity-measured: TGI

[[record]]
molecule = "COC(=O)CC1NC(=O)[C@@H]1C(C)O (some centres undefined)"
study_system = "UACC-257 melanoma"
meas_value = "> 100 µM"

[[record]]
molecule = "Cc1oc2c(C)c3oc(=O)cc(C)c3cc2c1CN1C(=O)C2OCCOCCOCCOCCOCCO[C@H]2C1=O (some centres undefined)"
study_system = "UACC-257 melanoma"
meas_value = "> 100 µM"

[[record]]
molecule = "O=S(=O)(Nc1ccc(Br)c(Cl)c1)c1ccc(-c2cnc(C3CC3)o2)cc1"
study_system = "UACC-257 melanoma"
meas_value = "25.9 µM"

[[record]]
molecule = "C[C@@H](c1ccccc1)N1CN(C(=O)OCc2ccccc2)C(C)(C)CC1=O"
study_system = "UACC-257 melanoma"
meas_value = "> 100 µM"

[[record]]
molecule = "O=C(/C=C/c1ccc(O)c(-c2cc(C(=O)/C=C/c3ccc(O)cc3)c(O)cc2O)c1)c1ccc(O)cc1O"
study_system = "UACC-257 melanoma"
meas_value = "> 50 µM"

[[record]]
molecule = "COC(=O)C(C#CCCCCC#CC(NC(=O)OCc1ccccc1)(C(=O)OC)C(F)(F)F)(NC(=O)OCc1ccccc1)C(F)(F)F (centres undefined)"
study_system = "UACC-257 melanoma"
meas_value = "> 100 µM"

[[record]]
molecule = "C=C1/C(=C\\C=C2/CCC[C@]3(C)[C@@H]([C@H](C)CCCC(C)(C)O)CC[C@@H]23)C[C@@H](OC(=O)CBr)C[C@@H]1O"
study_system = "UACC-257 melanoma"
meas_value = "26.8 µM"

[[record]]
molecule = "NC(=O)c1ccc(I)c(N=O)c1"
study_system = "UACC-257 melanoma"
meas_value = "> 100 µM"

[[record]]
molecule = "O=c1oc(Cl)c(Cl)c2ccccc12"
study_system = "UACC-257 melanoma"
meas_value = "> 100 µM"

